Target: Oatp1b2 (Mus musculus, UniProt Q9JJL3)
Sequence (Q9JJL3 1-689): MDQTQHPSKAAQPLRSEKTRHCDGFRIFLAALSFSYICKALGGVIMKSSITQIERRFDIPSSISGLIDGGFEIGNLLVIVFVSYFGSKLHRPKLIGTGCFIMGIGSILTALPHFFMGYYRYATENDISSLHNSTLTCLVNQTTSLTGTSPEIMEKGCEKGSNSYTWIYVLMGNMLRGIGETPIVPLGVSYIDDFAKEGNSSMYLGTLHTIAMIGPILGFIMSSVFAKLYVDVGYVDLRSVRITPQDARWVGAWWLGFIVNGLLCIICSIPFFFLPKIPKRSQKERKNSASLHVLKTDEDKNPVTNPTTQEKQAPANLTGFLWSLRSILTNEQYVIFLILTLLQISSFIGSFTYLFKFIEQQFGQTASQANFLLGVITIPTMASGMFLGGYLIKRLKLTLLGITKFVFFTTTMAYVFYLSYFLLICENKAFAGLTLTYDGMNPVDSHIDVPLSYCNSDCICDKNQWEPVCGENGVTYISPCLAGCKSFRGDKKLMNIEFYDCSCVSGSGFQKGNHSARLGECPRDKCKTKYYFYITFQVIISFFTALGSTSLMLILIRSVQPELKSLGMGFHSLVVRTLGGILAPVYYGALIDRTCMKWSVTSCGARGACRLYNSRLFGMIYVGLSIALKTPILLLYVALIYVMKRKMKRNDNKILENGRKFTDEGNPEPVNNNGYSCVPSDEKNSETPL
Test: Untargeted metabolomics of plasma from untreated wild-type and Oatp1b2(−/−) mice
Conditions: plasma of untreated Oatp1b2-deficient mice; raw area counts rescaled to median = 1
Reported Metric: Mean value KO

Here's what some known entries look like.
# Compound, Mean value KO
rows = [
    ("CC(CCC[C@@H](C)[C@H]1CC[C@H]2[C@@H]3[C@H](O)CC4=CC(=O)CC[C@]4(C)[C@H]3CC[C@]12C)C(=O)O (stereo partly drawn)", 1.20),
    ("CCCCCCCC/C=C\\CCCCCCCC(=O)O[C@H](COC(=O)CCCCCCCCCCCCCCC)COP(=O)([O-])OCC[N+](C)(C)C", 1.08),
    ("CCCCCCCC/C=C\\CCCCCCCC(=O)OCC(O)COP(=O)(O)OCC(O)CO (stereo not drawn)", 1.80),
    ("CCCCCCCCCCCCCCC=COCC(O)COP(=O)([O-])OCC[N+](C)(C)C (stereo not drawn)", 1.26),
    ("CCCCCCCCCCCCCCC(=O)O[C@H](CC(=O)[O-])C[N+](C)(C)C", 1.28),
]

1: C=CC1=C(C)/C(=C/c2[nH]c(Cc3[nH]c(/C=C4\NC(=O)C(C)=C4C=C)c(C)c3CCC(=O)O)c(CCC(=O)O)c2C)NC1=O [bilirubin (E,E)]
2: CCCCCCCCCCCCCCCCCC(=O)OC[C@@H](O)COP(=O)(O)OCC(O)CO (stereo partly drawn)
3: C[C@H](CCC(=O)O)[C@H]1CC[C@H]2[C@@H]3[C@@H](O)[C@@H](O)[C@@H]4C[C@H](O)CC[C@]4(C)[C@H]3CC[C@]12C [beta-muricholate]
# desc sort on Mean value KO across 3 compounds List labels; respect the requested ordering. 3, 2, 1

----------
target: Oatp1b2 (Mus musculus, UniProt Q9JJL3); assay: Untargeted metabolomics of plasma from untreated wild-type and Oatp1b2(−/−) mice; conditions: plasma of untreated Oatp1b2-deficient mice; raw area counts rescaled to median = 1
Reported Metric: Mean value KO

Here's what some known entries look like.
# Molecule, Mean value KO
measured = [
    ("CCCCCCCCCCCCCCCCCC(=O)OC[C@@H](O)COP(=O)(O)OCCN", 1.16),
    ("Cc1ncc(CO)c(C(=O)O)c1O [pyridoxate]", 1.21),
]

P: O=C(O)Cc1cn(C2O[C@H](CO)[C@@H](O)[C@H]2O)cn1 (some centres unmarked) [1-ribosyl-imidazoleacetate]
Q: C[C@H](CCC(=O)O)[C@H]1CC[C@H]2[C@@H]3[C@@H](O)C[C@@H]4C[C@H](O)CC[C@]4(C)[C@H]3CC[C@]12C [ursodeoxycholate]
Sorting by Mean value KO in descending order, would P or Q appear first? Reply briefly: the label of your chosen item. Q
(Q: 2.16, P: 1.34)

a: O=C(O)[C@H]1OC(O)[C@H](O)[C@@H](O)[C@@H]1O (mixture of isomers) [glucuronate]
b: C[C@H](CCC(=O)NCCS(=O)(=O)O)[C@H]1CC[C@H]2[C@@H]3CC[C@@H]4C[C@H](OS(=O)(=O)O)CC[C@]4(C)[C@H]3CC[C@]12C [taurolithocholate 3-sulfate]
Sorting by Mean value KO in descending order, would a or b appear first? Reply briefly: the label of your chosen item. a
